Origin of measurements: patent US20190315806A1

Test system: Klebsiella pneumoniae ATCC BAA-2146 (NDM-1)
Assay: Antibacterial activity, MIC by dish double dilution method
Assay type: cell-based
Settings: ATCC BAA-2146
Where a SMILES comes first, the peptide text is derived from it. Bridges are numbered along the chain shown (N, C = ends). [ ]: non-standard residue; d: D form. The star is where a group is joined. dPhe(4-tBu) = CC(C)(C)c1ccc(C[C@@H](N)C(=O)O)cc1; dPhe(2-Cl) = N[C@H](Cc1ccccc1Cl)C(=O)O; X7 = Cc1ccc(Oc2ccc(C(=O)*)cc2)cc1; X2 = CC[C@H](C)CCCCC(=O)*; Octanoyl = CCCCCCCC(=O)*; Dab = NCC[C@H](N)C(=O)O
assay-metric: MIC K. pneumoniae ATCC BAA-2146 (NDM-1)
Include the unit after the number when you answer.

Would you please look over these solved cases?
| compound | MIC K. pneumoniae ATCC BAA-2146 (NDM-1) |
| --- | --- |
| Cc1ccc(Oc2ccc(C(=O)N[C@@H](CCN)C(=O)N[C@H](C(=O)N[C@@H](CCN)C(=O)N[C@H]3CCNC(=O)[C@H]([C@@H](C)O)NC(=O)[C@H](CCN)NC(=O)[C@H](CCN)NC(=O)[C@H](CC(C)C)NC(=O)[C@@H](Cc4ccccc4)NC(=O)[C@H](CCN)NC3=O)[C@@H](C)O)cc2)cc1 [Compound 9] (X7-[Dab]T[Dab][Dab][Dab][dF]L[Dab][Dab]T; lactam 4-C) | 4 µg/mL |
| CC[C@H](C)CCCCC(=O)N[C@@H](CCN)C(=O)N[C@H](C(=O)N[C@@H](CCN)C(=O)N[C@H]1CCNC(=O)[C@H]([C@@H](C)O)NC(=O)[C@H](CCN)NC(=O)[C@H](CCN)NC(=O)[C@H](CC(C)C)NC(=O)[C@@H](Cc2ccc(O)cc2)NC(=O)[C@H](CCN)NC1=O)[C@@H](C)O [Compound 12] (X2-[Dab]T[Dab][Dab][Dab][dY]L[Dab][Dab]T; lactam 4-C) | 2 µg/mL |
| CCCCCCCC(=O)N[C@@H](CCN)C(=O)N[C@H](C(=O)N[C@@H](CO)C(=O)N[C@H]1CCNC(=O)[C@H]([C@@H](C)O)NC(=O)[C@H](CCN)NC(=O)[C@H](CCN)NC(=O)[C@H]([C@@H](C)O)NC(=O)[C@@H](CC(C)C)NC(=O)[C@H](CCN)NC1=O)[C@@H](C)O [Compound 111] (Octanoyl-[Dab]TS[Dab][Dab][dL]T[Dab][Dab]T; lactam 4-C) | 0.5 µg/mL |

Request: Recorded MIC K. pneumoniae ATCC BAA-2146 (NDM-1) for CC[C@H](C)CCCCC(=O)N[C@@H](CCN)C(=O)N[C@H](C(=O)N[C@@H](CCN)C(=O)N[C@H]1CCNC(=O)[C@H]([C@@H](C)O)NC(=O)[C@H](CCN)NC(=O)[C@H](CCN)NC(=O)[C@H](CC(C)C)NC(=O)[C@@H](Cc2ccccc2Cl)NC(=O)[C@H](CCN)NC1=O)[C@@H](C)O [Compound 18] (X2-[Dab]T[Dab][Dab][Dab][dPhe(2-Cl)]L[Dab][Dab]T; lactam 4-C) , please?
Response: 2 µg/mL

Request: Can you share its MIC K. pneumoniae ATCC BAA-2146 (NDM-1)? I mean this compound: CC[C@H](C)CCCCC(=O)N[C@@H](CCN)C(=O)N[C@H](C(=O)N[C@@H](CCN)C(=O)N[C@H]1CCNC(=O)[C@H]([C@@H](C)O)NC(=O)[C@H](CCN)NC(=O)[C@H](CCN)NC(=O)[C@H](CC(C)C)NC(=O)[C@@H](Cc2ccc(C(C)(C)C)cc2)NC(=O)[C@H](CCN)NC1=O)[C@@H](C)O [Compound 27] (X2-[Dab]T[Dab][Dab][Dab][dPhe(4-tBu)]L[Dab][Dab]T; lactam 4-C)
Response: 4 µg/mL
